Reference for the values: patent US6528494B2

# measurement target: adenosine 2a receptor (Homo sapiens)
# Sequence (P29274 whole entry): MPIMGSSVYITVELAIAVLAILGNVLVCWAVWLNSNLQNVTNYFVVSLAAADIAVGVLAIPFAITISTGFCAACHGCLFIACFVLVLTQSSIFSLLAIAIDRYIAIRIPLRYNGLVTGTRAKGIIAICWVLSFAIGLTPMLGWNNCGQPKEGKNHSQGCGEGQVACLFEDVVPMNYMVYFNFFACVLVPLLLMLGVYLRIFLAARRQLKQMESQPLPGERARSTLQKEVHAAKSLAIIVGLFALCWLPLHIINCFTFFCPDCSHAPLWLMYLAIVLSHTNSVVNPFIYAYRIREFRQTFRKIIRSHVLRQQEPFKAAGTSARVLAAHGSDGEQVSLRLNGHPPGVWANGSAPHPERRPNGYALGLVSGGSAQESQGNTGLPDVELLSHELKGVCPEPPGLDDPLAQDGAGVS
# experiment description: Agonist activity against adenosine 2a receptor (CHO cells, cAMP/SPAP reporter)
# Format: cell-based
# condition label: CHO cells transfected with human receptor; basal cAMP via SPAP; mean of all the versions tested
Field: label. Allowed values: met (A2a EC50 as a ratio of that of NECA < 0.6) or not met (A2a EC50 as a ratio of that of NECA >= 0.6).

Some entries whose results are on file:
CCn1nnc(C2OC(n3cnc4c(NC5CCCC5)nc(NC5CCC(N)CC5)nc43)C(O)C2O)n1.O=CO.O=CO (stereo not drawn) :: not met
Cn1nnc(C2OC(n3cnc4c(NC5CCCC5)nc(NCCN5CCCCC5)nc43)C(O)C2O)n1.O=CO.O=CO (stereo not drawn) :: met
Cn1cnc(CCNc2nc(NCCc3ccccc3)c3ncn([C@@H]4O[C@H](c5nnn(C)n5)[C@@H](O)[C@H]4O)c3n2)c1.O=CO :: met
CCC(CC)Nc1nc(NCCc2ccccn2)nc2c1ncn2C1OC(c2nnn(C)n2)C(O)C1O.O=CO.O=CO (stereo not drawn) :: not met
CCn1nnc([C@H]2O[C@@H](n3cnc4c(N)nc(NCc5ccccc5CO)nc43)[C@H](O)[C@@H]2O)n1.O=C(O)C(F)(F)F :: not met

// switching to the query compound
Lab note: A2a EC50 as a ratio of that of NECA threshold 0.6. Does this compound come in strictly under it? `CCn1nnc([C@H]2O[C@@H](n3cnc4c(NCC(c5ccccc5)c5ccccc5)nc(NC5CCSCC5)nc43)[C@H](O)[C@@H]2O)n1.O=C(O)C(F)(F)F`
met

====

# measurement target: adenosine 1 receptor (Homo sapiens)
# Sequence (P30542 whole entry): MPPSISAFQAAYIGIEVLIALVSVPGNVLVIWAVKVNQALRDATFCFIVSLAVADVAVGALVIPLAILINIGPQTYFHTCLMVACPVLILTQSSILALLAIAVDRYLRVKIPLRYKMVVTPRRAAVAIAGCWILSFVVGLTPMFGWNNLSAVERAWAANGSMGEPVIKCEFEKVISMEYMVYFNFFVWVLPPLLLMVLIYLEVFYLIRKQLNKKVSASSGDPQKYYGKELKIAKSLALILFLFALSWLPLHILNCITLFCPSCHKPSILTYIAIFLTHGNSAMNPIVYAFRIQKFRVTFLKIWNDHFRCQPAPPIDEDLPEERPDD
# experiment description: Agonist activity against adenosine 1 receptor (CHO cells, forskolin-enhanced cAMP/SPAP reporter)
# Format: cell-based
# condition label: CHO cells transfected with human receptor; forskolin-enhanced cAMP via SPAP; mean of all the versions tested
measurement name: A1 EC50 as a ratio of that of NECA
Please reply with the number alone, leaving off any unit.

CCn1nnc(C2OC(n3cnc4c(NCCN5CCOCC5)nc(NC(CO)Cc5ccccc5)nc43)C(O)C2O)n1 (stereo not shown) :: 192.90
CCn1nnc(C2OC(n3cnc4c(NC(CO)Cc5ccccc5)nc(NC5CCNC5)nc43)C(O)C2O)n1 (stereo not shown) :: 21.10
CCn1nnc([C@H]2O[C@@H](n3cnc4c(N)nc(NCc5ccccc5CO)nc43)[C@H](O)[C@@H]2O)n1.O=C(O)C(F)(F)F :: 16.90
CCn1nnc([C@H]2O[C@@H](n3cnc4c(N)nc(NCCc5ccc(O)c(O)c5)nc43)[C@H](O)[C@@H]2O)n1.O=CO :: 139.5
CCn1nnc([C@H]2O[C@@H](n3cnc4c(N)nc(NCCc5ccc(OC)c(OC)c5)nc43)[C@H](O)[C@@H]2O)n1.O=C(O)C(F)(F)F :: 253
CCC(CC)Nc1nc(NC2CCC(N)CC2)nc2c1ncn2C1OC(c2nnn(C)n2)C(O)C1O.O=CO.O=CO (stereo not shown) :: 348.11

Then this compound:
Quick one: A1 EC50 as a ratio of that of NECA for `Cn1cnc(CCNc2nc(NCCc3ccccc3)c3ncn([C@@H]4O[C@H](c5nnn(C)n5)[C@@H](O)[C@H]4O)c3n2)c1.O=CO` ?
1316

====

# measurement target: adenosine 3 receptor (Homo sapiens, UniProt P0DMS8)
# Sequence (P0DMS8 1-318): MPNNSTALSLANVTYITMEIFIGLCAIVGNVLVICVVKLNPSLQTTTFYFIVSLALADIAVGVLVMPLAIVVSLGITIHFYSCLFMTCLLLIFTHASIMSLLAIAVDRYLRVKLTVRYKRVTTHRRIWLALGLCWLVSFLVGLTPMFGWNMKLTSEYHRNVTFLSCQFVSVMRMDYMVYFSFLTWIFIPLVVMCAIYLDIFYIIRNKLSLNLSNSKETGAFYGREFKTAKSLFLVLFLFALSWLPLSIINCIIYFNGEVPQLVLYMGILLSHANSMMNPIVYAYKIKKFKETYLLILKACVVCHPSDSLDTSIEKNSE
# experiment description: Agonist activity against adenosine 3 receptor (CHO cells, forskolin-enhanced cAMP/SPAP reporter)
# Type: cell-based
# condition label: CHO cells transfected with human receptor; forskolin-enhanced cAMP via SPAP; mean of all the versions tested
Attribute: A3 EC50 as a ratio of that of NECA

Previously resolved entries follow.
CCn1nnc([C@H]2O[C@@H](n3cnc4c(N)nc(NCCc5ccc(OC)cc5)nc43)[C@H](O)[C@@H]2O)n1.O=CO [Example 18] :: >223
CCn1nnc(C2OC(n3cnc4c(NC(CO)Cc5ccccc5)nc(NC5CCNC5)nc43)C(O)C2O)n1 (stereo not drawn) [Example 62] :: >295
CCn1nnc([C@H]2O[C@@H](n3cnc4c(NCc5cccc(I)c5)nc(NCCN5CCOCC5)nc43)[C@H](O)[C@@H]2O)n1 [Example 48] :: >181

Quick one: A3 EC50 as a ratio of that of NECA for CCn1nnc([C@H]2O[C@@H](n3cnc4c(NCC(c5ccccc5)c5ccccc5)nc(NCCc5cccc(N)n5)nc43)[C@H](O)[C@@H]2O)n1.O=C(O)C(F)(F)F.O=C(O)C(F)(F)F.O=C(O)C(F)(F)F [Example 22] ?
>188

Quick one: A3 EC50 as a ratio of that of NECA for Cn1cnc(CCNc2nc(NCCC(C)(C)C)c3ncn([C@@H]4O[C@H](c5nnn(C)n5)[C@@H](O)[C@H]4O)c3n2)c1.O=CO [Example 28] ?
>151

Quick one: A3 EC50 as a ratio of that of NECA for CCn1nnc([C@H]2O[C@@H](n3cnc4c(NCC(c5ccccc5)c5ccccc5)nc(NCCO)nc43)[C@H](O)[C@@H]2O)n1.O=C(O)C(F)(F)F [Example 47] ?
>216
